- target: Met–Tai (D. melanogaster Met co-expressed with Tai) (Drosophila melanogaster, UniProt Q9VYW2, T103P)
- Construct: full-length Met ORF (codon 103 CCC, Pro); heterodimer; with Taiman
- Sequence (Q9VYW2 1-716 T103P): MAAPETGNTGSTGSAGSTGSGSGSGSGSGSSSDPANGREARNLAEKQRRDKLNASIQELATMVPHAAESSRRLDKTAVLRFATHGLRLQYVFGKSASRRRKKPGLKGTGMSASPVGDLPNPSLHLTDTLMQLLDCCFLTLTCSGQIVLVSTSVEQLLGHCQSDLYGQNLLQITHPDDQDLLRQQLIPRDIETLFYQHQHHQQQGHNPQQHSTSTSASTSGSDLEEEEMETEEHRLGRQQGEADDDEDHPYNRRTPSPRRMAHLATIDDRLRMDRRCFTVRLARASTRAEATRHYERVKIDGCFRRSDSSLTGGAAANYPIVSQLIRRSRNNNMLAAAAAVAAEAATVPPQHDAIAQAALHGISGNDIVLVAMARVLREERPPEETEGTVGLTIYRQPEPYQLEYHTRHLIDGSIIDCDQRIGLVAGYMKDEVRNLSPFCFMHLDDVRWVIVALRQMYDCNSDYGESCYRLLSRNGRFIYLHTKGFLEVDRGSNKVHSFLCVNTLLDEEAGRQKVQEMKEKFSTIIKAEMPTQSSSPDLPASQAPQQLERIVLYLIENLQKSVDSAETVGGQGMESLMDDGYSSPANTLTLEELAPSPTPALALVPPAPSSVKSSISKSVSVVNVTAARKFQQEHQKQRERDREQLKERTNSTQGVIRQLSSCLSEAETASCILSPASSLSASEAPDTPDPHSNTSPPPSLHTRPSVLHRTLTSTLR
- Sequence (Q9VLD9 1-2026 partner): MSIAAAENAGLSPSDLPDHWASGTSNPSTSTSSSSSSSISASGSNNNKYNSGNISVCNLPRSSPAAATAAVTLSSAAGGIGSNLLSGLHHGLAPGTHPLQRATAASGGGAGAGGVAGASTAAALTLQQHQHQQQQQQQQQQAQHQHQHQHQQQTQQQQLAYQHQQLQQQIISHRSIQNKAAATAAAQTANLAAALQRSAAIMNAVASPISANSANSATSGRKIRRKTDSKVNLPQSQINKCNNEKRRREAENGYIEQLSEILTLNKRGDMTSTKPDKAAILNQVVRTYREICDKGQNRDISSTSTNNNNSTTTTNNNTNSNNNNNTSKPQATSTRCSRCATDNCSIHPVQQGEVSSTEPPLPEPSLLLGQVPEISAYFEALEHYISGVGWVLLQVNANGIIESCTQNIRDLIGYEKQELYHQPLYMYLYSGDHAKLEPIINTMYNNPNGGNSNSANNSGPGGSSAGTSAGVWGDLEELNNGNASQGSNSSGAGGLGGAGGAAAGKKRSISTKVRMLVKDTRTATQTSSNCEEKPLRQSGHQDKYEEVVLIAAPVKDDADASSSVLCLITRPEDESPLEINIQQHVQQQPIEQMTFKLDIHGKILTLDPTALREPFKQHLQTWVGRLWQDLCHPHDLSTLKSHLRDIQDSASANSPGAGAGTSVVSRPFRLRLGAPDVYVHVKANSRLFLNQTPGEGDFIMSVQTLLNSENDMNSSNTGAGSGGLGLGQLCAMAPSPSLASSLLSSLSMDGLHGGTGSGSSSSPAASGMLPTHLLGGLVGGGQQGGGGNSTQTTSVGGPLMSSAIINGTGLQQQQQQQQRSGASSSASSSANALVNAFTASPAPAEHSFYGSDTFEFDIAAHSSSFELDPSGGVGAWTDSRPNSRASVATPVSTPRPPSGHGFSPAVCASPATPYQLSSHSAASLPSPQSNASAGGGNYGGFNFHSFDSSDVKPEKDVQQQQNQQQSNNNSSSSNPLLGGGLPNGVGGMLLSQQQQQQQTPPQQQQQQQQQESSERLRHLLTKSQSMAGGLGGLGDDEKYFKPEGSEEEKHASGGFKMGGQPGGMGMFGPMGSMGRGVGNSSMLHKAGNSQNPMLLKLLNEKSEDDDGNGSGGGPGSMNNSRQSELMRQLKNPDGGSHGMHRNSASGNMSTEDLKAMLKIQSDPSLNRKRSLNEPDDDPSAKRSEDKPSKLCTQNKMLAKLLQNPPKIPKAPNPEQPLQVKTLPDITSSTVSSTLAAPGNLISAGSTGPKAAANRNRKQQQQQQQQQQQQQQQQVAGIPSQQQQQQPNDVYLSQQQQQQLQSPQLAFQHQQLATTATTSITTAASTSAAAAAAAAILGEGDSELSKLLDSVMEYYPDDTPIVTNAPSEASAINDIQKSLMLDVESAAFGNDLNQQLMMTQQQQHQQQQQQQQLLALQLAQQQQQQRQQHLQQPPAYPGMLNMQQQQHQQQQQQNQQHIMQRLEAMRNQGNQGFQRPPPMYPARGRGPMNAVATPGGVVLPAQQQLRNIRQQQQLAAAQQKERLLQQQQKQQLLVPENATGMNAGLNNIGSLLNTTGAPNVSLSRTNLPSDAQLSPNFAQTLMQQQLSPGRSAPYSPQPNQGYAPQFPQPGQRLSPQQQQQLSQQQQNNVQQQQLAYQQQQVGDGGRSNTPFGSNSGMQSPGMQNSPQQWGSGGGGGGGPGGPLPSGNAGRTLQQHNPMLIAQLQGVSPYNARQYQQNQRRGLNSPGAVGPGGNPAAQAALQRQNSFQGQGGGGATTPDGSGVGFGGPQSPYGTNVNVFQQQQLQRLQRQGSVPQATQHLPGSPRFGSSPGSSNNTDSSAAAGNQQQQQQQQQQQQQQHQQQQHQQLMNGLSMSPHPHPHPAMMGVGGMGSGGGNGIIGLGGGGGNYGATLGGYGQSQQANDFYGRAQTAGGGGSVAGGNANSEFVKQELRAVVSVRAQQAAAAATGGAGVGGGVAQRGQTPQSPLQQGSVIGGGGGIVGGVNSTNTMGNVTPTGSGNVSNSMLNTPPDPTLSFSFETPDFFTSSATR
- experimental_protocol: yeast lacZ reporter gene assay (beta-galactosidase, ONPG)
- Format: cell-based
- measurement_parameters: agonist; 30 °C, 18 h; Tai co-expressed; BmkJHRE x 2 reporter
measure: pEC50
Note on pEC50: it is the negative log10 of concentration, concentration in mol/L.

Challenge: For the molecule CC(COc1ccc(Oc2ccccc2)cc1)Oc1ccccn1 (stereo not shown) [Pyriproxyfen] , report pEC50.
Response given: 7.06

Values from paper PMC8487040
